target: ENPP-1 (Homo sapiens); construct: purchased Biovendor RD172124100; assay: ENPP-1 enzyme assay with pNP-TMP substrate; type: biochemical; settings: 12.5 ng ENPP-1, 720 μM substrate pNP-TMP, pH 9.0, 37° C., 60 minutes, absorbance 405 nm; average IC50
Sequence (P22413 whole entry): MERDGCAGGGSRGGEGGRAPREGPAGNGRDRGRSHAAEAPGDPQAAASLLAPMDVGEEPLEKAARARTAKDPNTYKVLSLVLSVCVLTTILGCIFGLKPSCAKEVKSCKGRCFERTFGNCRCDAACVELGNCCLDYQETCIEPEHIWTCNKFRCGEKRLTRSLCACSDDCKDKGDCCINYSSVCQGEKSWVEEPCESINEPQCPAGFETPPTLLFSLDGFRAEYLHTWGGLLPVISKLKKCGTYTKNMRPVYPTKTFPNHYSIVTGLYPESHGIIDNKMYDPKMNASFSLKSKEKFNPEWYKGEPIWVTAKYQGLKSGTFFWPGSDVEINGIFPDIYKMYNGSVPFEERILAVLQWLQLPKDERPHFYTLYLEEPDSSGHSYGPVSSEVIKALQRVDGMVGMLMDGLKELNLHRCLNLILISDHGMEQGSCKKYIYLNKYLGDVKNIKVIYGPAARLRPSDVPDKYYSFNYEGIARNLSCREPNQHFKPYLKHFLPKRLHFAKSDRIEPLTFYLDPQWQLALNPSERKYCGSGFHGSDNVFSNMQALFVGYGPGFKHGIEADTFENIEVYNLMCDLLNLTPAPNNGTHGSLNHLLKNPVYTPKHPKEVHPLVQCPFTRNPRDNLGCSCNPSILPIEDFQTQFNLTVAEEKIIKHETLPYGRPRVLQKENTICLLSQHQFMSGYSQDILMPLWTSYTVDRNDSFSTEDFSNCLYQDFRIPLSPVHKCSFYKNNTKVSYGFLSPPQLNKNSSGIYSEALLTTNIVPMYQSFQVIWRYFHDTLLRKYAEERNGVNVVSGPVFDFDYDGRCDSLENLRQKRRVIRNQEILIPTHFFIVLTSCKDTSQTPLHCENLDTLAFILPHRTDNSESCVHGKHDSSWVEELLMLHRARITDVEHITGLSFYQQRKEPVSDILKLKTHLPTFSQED
pIC50: −log10 of the molar value.
// values below are reported pIC50

{"compound": "COc1ccc2c3cnccc3n(Cc3ccc(S(N)(=O)=O)cc3)c2c1 [Compound 52]", "system_under_test": "ENPP-1 (Homo sapiens)", "pIC50": "> 6.00"}
{"compound": "COc1ccc2c(c1)c1ncccc1n2Cc1ccc(S(C)(=N)=O)c(F)c1 (centres unmarked) [Compound 20]", "system_under_test": "ENPP-1 (Homo sapiens)", "pIC50": "> 6.00"}
{"compound": "COc1ccc2c(c1)c1ncccc1n2Cc1ccc(S(C)(=N)=O)cc1 (single isomer, unassigned) [Compound 10a]", "system_under_test": "ENPP-1 (Homo sapiens)", "pIC50": "> 6.00"}
{"compound": "COc1ccc2c(c1)c1c(n2Cc2cccc(S(N)(=O)=O)c2)CCCN1 [Compound 39]", "system_under_test": "ENPP-1 (Homo sapiens)", "pIC50": "< 5.00"}
{"compound": "COc1cc2c3ncccc3n(Cc3ccc(S(N)(=O)=O)cc3)c2cc1F [Compound 29]", "system_under_test": "ENPP-1 (Homo sapiens)", "pIC50": "> 6.00"}
{"compound": "COc1ccc2c3c(=O)[nH]ncc3n(Cc3ccc(S(N)(=O)=O)cc3)c2c1 [Compound 45]", "system_under_test": "ENPP-1 (Homo sapiens)", "pIC50": "> 6.00"}
{"compound": "COc1ccc2c(c1)c1cccnc1n2Cc1ccc(S(N)(=O)=O)cc1 [Compound 49]", "system_under_test": "ENPP-1 (Homo sapiens)", "pIC50": "> 6.00"}
{"compound": "COc1cc2c3ncccc3n(Cc3ccc(S(C)(=N)=O)cc3F)c2cc1F (centres unmarked) [Compound 31]", "system_under_test": "ENPP-1 (Homo sapiens)", "pIC50": "> 6.00"}
{"compound": "COc1ccc2c3ncccc3n(Cc3ccc(S(N)(=O)=O)cc3)c2c1 [Compound 53]", "system_under_test": "ENPP-1 (Homo sapiens)", "pIC50": "> 6.00"}
{"compound": "NS(=O)(=O)c1ccc(Cn2c3ccc(OC(F)(F)F)cc3c3ncccc32)cc1 [Compound 22]", "system_under_test": "ENPP-1 (Homo sapiens)", "pIC50": "> 6.00"}
{"compound": "COc1ccc2c(c1)c1ncccc1n2Cc1ccc(S(N)(=O)=O)cc1 [Compound 5]", "system_under_test": "ENPP-1 (Homo sapiens)", "pIC50": "> 6.00"}
{"compound": "COc1ccc2c(c1)c1c(n2Cc2ccc(S(N)(=O)=O)cc2)CCNC1 [Compound 36]", "system_under_test": "ENPP-1 (Homo sapiens)", "pIC50": "5.00 to 6.00"}
{"compound": "COc1ccc2c3c(=O)[nH]ncc3n(Cc3ccc(S(C)(=N)=O)cc3)c2c1 (centres unmarked) [Compound 46]", "system_under_test": "ENPP-1 (Homo sapiens)", "pIC50": "> 6.00"}
{"compound": "COc1ccc2c(c1)c1cnccc1n2Cc1ccc(S(N)(=O)=O)cc1 [Compound 4]", "system_under_test": "ENPP-1 (Homo sapiens)", "pIC50": "> 6.00"}
{"compound": "COc1ccc2c3cnncc3n(Cc3ccc(S(N)(=O)=O)cc3)c2c1 [Compound 47]", "system_under_test": "ENPP-1 (Homo sapiens)", "pIC50": "> 6.00"}
{"compound": "COc1ccc2c(c1)c1ncccc1n2Cc1ccc(CP(=O)(O)O)cc1 [Compound 14]", "system_under_test": "ENPP-1 (Homo sapiens)", "pIC50": "> 6.00"}
{"compound": "COc1ccc2c(c1)c1c(n2Cc2ccc(S(N)(=O)=O)cc2)CCNC1=O [Compound 41]", "system_under_test": "ENPP-1 (Homo sapiens)", "pIC50": "> 6.00"}
{"compound": "COc1ccc2c(c1)c1ncccc1n2Cc1ccc(S(=N)(=O)Cc2ccccc2)cc1 (centres unmarked) [Compound 12]", "system_under_test": "ENPP-1 (Homo sapiens)", "pIC50": "> 6.00"}
{"compound": "COc1ccc2c(c1)c1ncncc1n2Cc1ccc(S(N)(=O)=O)cc1 [Compound 51]", "system_under_test": "ENPP-1 (Homo sapiens)", "pIC50": "> 6.00"}
{"compound": "COc1ccc2c(c1)c1ncccc1n2Cc1ccc(S(N)(=O)=O)cc1Cl [Compound 16]", "system_under_test": "ENPP-1 (Homo sapiens)", "pIC50": "> 6.00"}
{"compound": "COc1ccc2c(c1)c1ccncc1n2Cc1ccc(S(N)(=O)=O)cc1 [Compound 2]", "system_under_test": "ENPP-1 (Homo sapiens)", "pIC50": "> 6.00"}
{"compound": "COc1ccc2c(c1)c1ccncc1n2Cc1ccc(S(C)(=N)=O)cc1 (centres unmarked) [Compound 3]", "system_under_test": "ENPP-1 (Homo sapiens)", "pIC50": "> 6.00"}
{"compound": "COc1ccc2c(c1)c1c(n2Cc2ccc(S(N)(=O)=O)cc2)CNC(C)C1 (centres unmarked) [Compound 33]", "system_under_test": "ENPP-1 (Homo sapiens)", "pIC50": "< 5.00"}
{"compound": "COc1cc2c(cc1F)c1ncccc1n2Cc1ccc(S(C)(=N)=O)cc1 (centres unmarked) [Compound 32]", "system_under_test": "ENPP-1 (Homo sapiens)", "pIC50": "> 6.00"}
{"compound": "COc1cc2c3ncccc3n(Cc3ccc(P(=O)(O)O)cc3)c2cc1F [Compound 57]", "system_under_test": "ENPP-1 (Homo sapiens)", "pIC50": "> 6.00"}
{"compound": "COc1cc2c3ncccc3n(Cc3ccc(S(C)(=N)=O)cc3)c2cc1F (single isomer, unassigned) [Compound 30a]", "system_under_test": "ENPP-1 (Homo sapiens)", "pIC50": "> 6.00"}
{"compound": "COc1ccc2c(c1)c1ncccc1n2Cc1ccc(S(C)(=N)=O)cc1C(F)(F)F (centres unmarked) [Compound 55]", "system_under_test": "ENPP-1 (Homo sapiens)", "pIC50": "< 5.00"}
{"compound": "CCS(=N)(=O)c1ccc(Cn2c3ccc(OC)cc3c3ncccc32)cc1 (centres unmarked) [Compound 11]", "system_under_test": "ENPP-1 (Homo sapiens)", "pIC50": "> 6.00"}
{"compound": "COc1ccc2c(c1)c1ncccc1n2CC1CCN(S(N)(=O)=O)CC1 [Compound 6]", "system_under_test": "ENPP-1 (Homo sapiens)", "pIC50": "> 6.00"}
{"compound": "COc1cc2c3ncccc3n(Cc3ccc(S(=N)(=O)C4CC4)cc3)c2cc1F (single isomer, unassigned) [Compound 56a]", "system_under_test": "ENPP-1 (Homo sapiens)", "pIC50": "> 6.00"}
{"compound": "COc1ccc2c(c1)c1cnncc1n2Cc1ccc(S(N)(=O)=O)cc1 [Compound 50]", "system_under_test": "ENPP-1 (Homo sapiens)", "pIC50": "5.00 to 6.00"}
{"compound": "COc1ccc2c(c1)c1ncccc1n2Cc1ccc(S(C)(=N)=O)cc1OC (centres unmarked) [Compound 19]", "system_under_test": "ENPP-1 (Homo sapiens)", "pIC50": "> 6.00"}
{"compound": "COc1ccc2c(c1)c1ncccc1n2CCc1ccc(S(N)(=O)=O)cc1 [Compound 9]", "system_under_test": "ENPP-1 (Homo sapiens)", "pIC50": "> 6.00"}
{"compound": "CCOc1ccc2c(c1)c1ncccc1n2Cc1ccc(S(C)(=N)=O)cc1 (centres unmarked) [Compound 24]", "system_under_test": "ENPP-1 (Homo sapiens)", "pIC50": "5.00 to 6.00"}
{"compound": "COc1cc(F)c2c(c1)c1ncccc1n2Cc1ccc(S(N)(=O)=O)cc1 [Compound 25]", "system_under_test": "ENPP-1 (Homo sapiens)", "pIC50": "> 6.00"}
